# method description: chemical genetic growth profiling, strain panel (AID 1159580);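 note: tested at 20 µM; growth read once vehicle control cultures reached saturation at 30 °C; 1 = growth at the plate median or of vehicle wells; lower values mean less growth of the strain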
# reported conditions: S. cerevisiae deletion strains, growth OD, locus YHR087W, strain rtc3, hits give low values
The whole screen tested about 5,500 compounds, of which about 2,000 (36%) were called active. Not shown: some 18% with an inconclusive outcome. This is one part of the list.
quantity name: normalized growth

{"molecule": "NNC(=S)Nc1cc(C(F)(F)F)ccc1Cl", "observed result": "0.938 (inactive)"}
{"molecule": "Cc1ccc(C(=O)NNC(=O)c2ccncc2)c(C)c1", "observed result": "1 (inactive)"}
{"molecule": "N#C/C(=C\\Nc1ccc2c(c1)OCCO2)S(=O)(=O)c1ccc(C(F)(F)F)cn1", "observed result": "1.01 (inactive)"}
{"molecule": "CCOC(=O)c1csc(N/N=C2/CCCc3ccccc32)n1", "observed result": "0.899 (active)"}
{"molecule": "O=[N+]([O-])c1cc(C(F)(F)F)ccc1NCCCn1ccnc1", "observed result": "0.965 (inactive)"}

[Q] normalized growth lookup needed for CC(=O)CSc1nsc(SCC(C)=O)c1C#N , thanks.
[A] 0.971 (inactive)

[Q] Consider next the molecule O=C(NCCNc1ccc(C(F)(F)F)cc1[N+](=O)[O-])c1cccs1 in the same way.
[A] 0.973 (inactive)

[Q] Could you do the same for O=S(=O)(c1ccc(Cl)c(Cl)c1)N1CCN(c2ccc(C(F)(F)F)cn2)CC1 , please?
[A] 1.02 (inactive)

[Q] Ok, now N/C(=N/OC(=O)C(Cl)Cl)c1cccc(Cl)c1Cl
[A] 0.971 (inactive)

[Q] Next up: COc1cc(NC(=O)Nc2ccc(OC(F)(F)F)cc2)cc(C(F)(F)F)c1
[A] 0.984 (inactive)

[Q] And for CCOC(=O)CC1=Nn2c(nnc2-c2cc(Cl)cc(Cl)c2)SC1 ?
[A] 0.927 (inactive)

[Q] How about this molecule: CC(=O)NN(C)c1ccc(C(F)(F)F)cc1[N+](=O)[O-]
[A] 1.01 (inactive)

[Q] Try the molecule Cc1cc(C)c(C(=O)NCCNc2ccc(C(F)(F)F)cc2[N+](=O)[O-])c(C)c1
[A] 0.89 (active)

[Q] Note, next up: O=C(Oc1ccc(F)cc1)c1cccs1
[A] 0.992 (inactive)

[Q] Now try NC(=S)c1ccc2nonc2c1 .
[A] 0.996 (inactive)

[Q] Likewise for Cc1cccc(NCN2C(=O)CCC2=O)n1 ?
[A] 1.06 (inactive)

---

Entries and their measured normalized growth follow.
# method description: chemical genetic growth profiling, strain panel (AID 1159580);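 note: tested at 20 µM; growth read once vehicle control cultures reached saturation at 30 °C; 1 = growth at the plate median or of vehicle wells; lower values mean less growth of the strain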
# reported conditions: S. cerevisiae deletion strains, growth OD, locus YMR263W, strain SAP30, hits give low values
Among all 5,500 compounds or so, about 2,000 (36%) were called active. Roughly 18% stayed inconclusive and do not appear here. This is one part of the list.
The response must contain the number and no unit.

{"molecule": "COc1ccc2ccc(=O)oc2c1CC=C(C)C", "quantity name": "normalized growth", "observed result": 0.826}
{"molecule": "N#CC(C#N)=CNc1cc(C(F)(F)F)ccc1N1CCCCC1", "quantity name": "normalized growth", "observed result": 0.986}
{"molecule": "CC1=C2[C@](C)(C=CC1=O)C[C@H](O)[C@H]1[C@H](C)C(=O)O[C@]21C", "quantity name": "normalized growth", "observed result": 1}
{"molecule": "Cc1cccc(NCN2C(=O)CCC2=O)n1", "quantity name": "normalized growth", "observed result": 1.01}
{"molecule": "c1ccc2c(c1)[nH]c1cnccc12", "quantity name": "normalized growth", "observed result": 0.982}

[Q] Please give the measured normalized growth for this molecule: O=[N+]([O-])c1cc(C(F)(F)F)ccc1NCCCn1ccnc1
[A] 1.03

[Q] Okay, and C/C=C(/C)C(=O)O[C@H]1C(C)=C2[C@H]([C@@H]1OC(=O)CCCCCCC)[C@@](C)(OC(C)=O)C[C@H](OC(=O)CCC)[C@@]1(O)[C@H]2OC(=O)[C@@]1(C)O ?
[A] 0.995

[Q] Also check N[C@@H](CCCC(=O)O)C(=O)O
[A] 1

[Q] Now this one: Cc1cc(C)c(C(=O)NCCNc2ccc(C(F)(F)F)cc2[N+](=O)[O-])c(C)c1
[A] 0.96

[Q] Same read-out for C[C@]12C=CC(=O)C=C1CCC1C2CC[C@]2(C)C(=O)CCC12 (stereo partly drawn) ?
[A] 0.99

[Q] Also check N/C(=N/OC(=O)C(Cl)Cl)c1cccc(Cl)c1Cl
[A] 0.992

[Q] Follow-up entry: Cn1c([N+](=O)[O-])cnc1COC(N)=O
[A] 1.01

[Q] Further, for Oc1ccc(C2CNCc3sccc32)cc1O (stereo not drawn) ?
[A] 1

Where do the numbers come from? From PubChem BioAssay AID1159580.
